Hi there, I'd appreciate the recorded Kd for every entry that follows.
- target-desc: SARS-CoV-2 wild-type spike receptor-binding domain (SARS-CoV-2, WT (MN908947), UniProt P0DTC2)
- protocol-notes: BLI
- setup-conditions: both partners purified
Give bare numbers, in nM.

# annotated cases, reported Kd shown
XGv347 (antibody, V domains shown) VH: QMQLVQSGPEVKKPGTSVKVSCKASGFTFTDVSSLQWVRQARGQRLEWIGWTVVGTGNTNYAPRFQERVTITTDKSTSTAYMELSSLRSEDTAVYYCAAPFCSETSCSDGFDLWGQGTKVTVSS VL: EIVLTQSPGTLSLSPGDRATLSCRASQSVRISYLAWYQQKPGQAPRLLISGSSSRATGIPDRFSASGSGTDFALTISRLEPEDFAVYYCQQYDNSPWTFGQGTKVEVK	0.0814
XGv265 (antibody, V domains shown) VH: QITLKESGPTLVKPTQTLTLTCNFSGFSLNTYGVGVGWIRQPPGKALEWLALIYWDGDERYGPFFKNKVTIAKDTSKNQVVLTMTNMDPVDTATYYCARHLIPTIFDYWGQGTLVTVSS VL: QSALTQPASVSGSPGQSITISCTGTSSDVGGSNYVSWYQHHPDRAPKLLIYEVTNRPSGVSNRFSGSKSANTASLTISGLQAEDEADYYCSSYTTTSTHILFGGGTKLTV	0.59

Your task in this section: give Kd for each listed record.
1. XGv289 (antibody, V domains shown) VH: QVQLVQSGAEVKKPGASLKVSCRASGYTFTSHFIHWVRQAPGQGLEWMGIINPSGGASYAQNFRDRVTMTTDPSTSTVYMELGSLRSEDTAVYYCARAEGSSWLGWFDPWGQGTLVTVSS VL: QSVLTQPPSASGTPGQRVTIPCSGSSSNIGNNYVYWYQQLPGTAPKLLVYGNNQRPSGVPDRFSVSKSGTSASLAISGLRSEDEADYYCAAWDDGLSGSGWVFGGGTKLTVL
2. XGv282 (antibody, V domains shown) VH: QVQLVQSGAEVKKPGSSVKVSCKASGDTFSSYTFSWVRQAPGQGLEWMGRSIPIVGKAIYAQEFQGRVTISADRSTTTVYMELSSLRSDDTAVYYCARDQSGFDFFYYDHWGQGTLVAVSS VL: QSVLTQPPSASGTPGQRVTISCSGSGSNIGSNTINWYQQLPGTAPKVLIYRNNERPSGVPDRFSGSKSGTSASLTISGLQSEDEAYYHCAAWDDSLNGPVFGGGTKLTVL

Output:
0.515
0.344
